Molecular target: RRM tandem W134A (human, UniProt Q07955 1-196, W134A)
Sequence (Q07955 1-196 W134A): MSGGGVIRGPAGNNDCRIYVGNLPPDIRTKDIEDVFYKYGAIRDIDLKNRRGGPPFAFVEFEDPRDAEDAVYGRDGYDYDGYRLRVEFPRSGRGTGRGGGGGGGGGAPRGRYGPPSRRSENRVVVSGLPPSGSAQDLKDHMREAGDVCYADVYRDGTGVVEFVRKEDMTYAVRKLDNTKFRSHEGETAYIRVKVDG
Experiment: FP; FP, 10 nM RNA, 37 C 30 min then 25 C 10 min; 21-mers: 25 mM KCl, 0.25 M Arg/Glu, 20 mM Tris-HCl pH 7.5, 0.1 mM EDTA, 0.1 mM TCEP, 0.02% Tween 20; 8-mers: 35 mM
Details: protein: recombinant; tags: SUMO; label: 5' fluorescein; G-quadruplex (parallel)
endpointName: Kd (nM)
Field format: number, assumed nM, no unit text.

Noted for GGGGGCUGGGCGGGGACCGGG (structured_RNA) [ARPC2 GQ] : its Kd reads 1200
